Data credit: patent US5364870A

- System: wheat stem rust (Puccinia graminis f. sp. tritici Race 15B-2)
- experimental.protocol: whole plant or invertebrate
- Format: in vivo
- experimental.parameters: 336 h, read-out: % Control WSR (percent disease control)
For each of the compounds below, state its pest or weed control at 200 ppm.
Answers are plain numbers, in %.

# example entries with known answers
compound | pest or weed control at 200 ppm, %
[C-]#[N+]C(CCCC)(Cn1cncn1)c1ccc(Cl)cc1 (stereo not drawn) | 90
CCCCC(C=O)(Cn1cncn1)c1ccc(Cl)cc1 (stereo not drawn) | 100
C=CC(CCCC)(Cn1cncn1)c1ccc(Cl)cc1 (stereo not drawn) | 100
[C-]#[N+]CC(CCCC)(Cn1cncn1)c1ccc(Cl)cc1 (stereo not drawn) | 100

Provide reported pest or weed control at 200 ppm for each item, in the same order as listed.
1. CCCCC(Cn1cncn1)(NC=O)c1ccc(Cl)cc1 (stereo not drawn)
2. CCCCC(Cn1cncn1)(NC(C)=O)c1ccc(Cl)cc1 (stereo not drawn)
3. CCCCC(CNC=O)(Cn1cncn1)c1ccc(Cl)cc1 (stereo not drawn)
4. CCCCC(C=NO)(Cn1cncn1)c1ccc(Cl)cc1 (stereo not drawn)
5. CCCCC(Cn1cncn1)(C(=O)N=[N+]=[N-])c1ccc(Cl)cc1 (stereo not drawn)

[60, 0, 0, 100, 70]
